Tested on: MCF10A
run.description: one-nucleolus phenotype percent effect (relative to siNT 0% and siNOL11 100%); higher = more cells with one nucleolus (ribosome biogenesis inhibition)
measurement.parameters: 20 nM; 72 h

query.sequence: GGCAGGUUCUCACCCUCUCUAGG [hsa-miR-657]
subject.of.test: MCF10A
one-nucleolus phenotype percent effect (%): 4.3
//
query.sequence: CAUCCCUUGCAUGGUGGAGGG [hsa-miR-188-5p]
subject.of.test: MCF10A
one-nucleolus phenotype percent effect (%): -13.1
//
query.sequence: CCUGGGGACAGGGGAUUGGGGCAG [hsa-miR-8089]
subject.of.test: MCF10A
one-nucleolus phenotype percent effect (%): -19.7
//
query.sequence: CUGGGAGGUCAAGGCUGCAGU [hsa-miR-1273h-5p]
subject.of.test: MCF10A
one-nucleolus phenotype percent effect (%): 11.3
//
query.sequence: ACUCGGCUGCGGUGGACAAGU [hsa-miR-4638-5p]
subject.of.test: MCF10A
one-nucleolus phenotype percent effect (%): 3.97
//
query.sequence: UCACUCUCACCUUGCUUUGC [hsa-miR-4639-3p]
subject.of.test: MCF10A
one-nucleolus phenotype percent effect (%): -11.5
//
query.sequence: GGGAUGGUAGACCGGUGACGUGC [hsa-miR-1193]
subject.of.test: MCF10A
one-nucleolus phenotype percent effect (%): 19.2
//
query.sequence: CCAAUAUUGGCUGUGCUGCUCC [hsa-miR-195-3p]
subject.of.test: MCF10A
one-nucleolus phenotype percent effect (%): -16.1
//
query.sequence: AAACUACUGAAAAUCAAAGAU [hsa-miR-606]
subject.of.test: MCF10A
one-nucleolus phenotype percent effect (%): -12.6
//
query.sequence: AGAAGGGGUGAAAUUUAAACGU [hsa-miR-3179]
subject.of.test: MCF10A
one-nucleolus phenotype percent effect (%): 60.8
//
query.sequence: CAUAAAGUAGAAAGCACUACU [hsa-miR-142-5p]
subject.of.test: MCF10A
one-nucleolus phenotype percent effect (%): -15.5
//
query.sequence: CAGGGAAAUGGGAAGAACUAGA [hsa-miR-5584-5p]
subject.of.test: MCF10A
one-nucleolus phenotype percent effect (%): -19.1
//
query.sequence: UAAAUUUCACCUUUCUGAGAAGA [hsa-miR-513c-3p]
subject.of.test: MCF10A
one-nucleolus phenotype percent effect (%): 15.7
//
query.sequence: ACUGGACUUGGUGUCAGAUGG [hsa-miR-378h]
subject.of.test: MCF10A
one-nucleolus phenotype percent effect (%): -14.6
//
query.sequence: ACUCAAAAGAUGGCGGCACUUU [hsa-miR-371b-5p]
subject.of.test: MCF10A
one-nucleolus phenotype percent effect (%): -20.5
//
query.sequence: AUCAUGUAUGAUACUGCAAACA [hsa-miR-6516-3p]
subject.of.test: MCF10A
one-nucleolus phenotype percent effect (%): 25.6
//
query.sequence: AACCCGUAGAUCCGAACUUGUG [hsa-miR-100-5p]
subject.of.test: MCF10A
one-nucleolus phenotype percent effect (%): 9.92
//
query.sequence: UGGUUCUCUUGUGGCUCAAGCGU [hsa-miR-597-3p]
subject.of.test: MCF10A
one-nucleolus phenotype percent effect (%): 44.1
//
query.sequence: GCGGUGGGGCCGGAGGGGCGU [hsa-miR-6786-5p]
subject.of.test: MCF10A
one-nucleolus phenotype percent effect (%): -24.9
//
query.sequence: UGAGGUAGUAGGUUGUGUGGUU [hsa-let-7b-5p]
subject.of.test: MCF10A
one-nucleolus phenotype percent effect (%): -9.82
//
query.sequence: AGUGGGAGGACAGGAGGCAGGU [hsa-miR-6778-5p]
subject.of.test: MCF10A
one-nucleolus phenotype percent effect (%): -2.52
//
query.sequence: UAAAUUUCACCUUUCUGAGAAGG [hsa-miR-513a-3p]
subject.of.test: MCF10A
one-nucleolus phenotype percent effect (%): 18
//
query.sequence: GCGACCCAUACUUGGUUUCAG [hsa-miR-551b-3p]
subject.of.test: MCF10A
one-nucleolus phenotype percent effect (%): -14.5
//
query.sequence: CACCCAGAUCUGCGGCCUAAU [hsa-miR-1295b-5p]
subject.of.test: MCF10A
one-nucleolus phenotype percent effect (%): 34.4
//
query.sequence: UGAGAACCACGUCUGCUCUGAG [hsa-miR-589-5p]
subject.of.test: MCF10A
one-nucleolus phenotype percent effect (%): -14.3
//
query.sequence: UUGGGGUUUGGGGUGCAGACAUUGC [hsa-miR-6855-5p]
subject.of.test: MCF10A
one-nucleolus phenotype percent effect (%): 34.4
//
query.sequence: AGGCGAUGUGGGGAUGUAGAGA [hsa-miR-6717-5p]
subject.of.test: MCF10A
one-nucleolus phenotype percent effect (%): 19.4
//
query.sequence: UGCCUUCCUGUCUGUG [hsa-miR-4297]
subject.of.test: MCF10A
one-nucleolus phenotype percent effect (%): 16.6
//
query.sequence: UCCGUACAAACUCUGCUGUG [hsa-miR-3678-5p]
subject.of.test: MCF10A
one-nucleolus phenotype percent effect (%): 39.4
//
query.sequence: GGAGGCGCAGGCUCGGAAAGGCG [hsa-miR-3197]
subject.of.test: MCF10A
one-nucleolus phenotype percent effect (%): -2.74
//
query.sequence: CUGCGCAAGCUACUGCCUUGCU [hsa-let-7i-3p]
subject.of.test: MCF10A
one-nucleolus phenotype percent effect (%): -4.21
//
query.sequence: UGCAACUUACCUGAGUCAUUGA [hsa-miR-891b]
subject.of.test: MCF10A
one-nucleolus phenotype percent effect (%): 1.72
//
query.sequence: ACUGCCCCAGGUGCUGCUGG [hsa-miR-324-3p]
subject.of.test: MCF10A
one-nucleolus phenotype percent effect (%): -7.87

---

Test system: MCF10A
run.description: 5+ nucleoli phenotype percent effect (relative to siNT 0% and siKIF11 100%); higher = more cells with five or more nucleoli
measurement.parameters: 20 nM; 72 h

query.sequence: ACUCAGUCAUGGUCAUU [hsa-miR-4264]
5+ nucleoli phenotype percent effect / %: 26.3
--
query.sequence: ACCAGCGCGUUUUCAGUUUCAU [hsa-miR-4738-5p]
5+ nucleoli phenotype percent effect / %: 13.4
--
query.sequence: UAUGUGACCUCGGAUGAAUCA [hsa-miR-4501]
5+ nucleoli phenotype percent effect / %: -23.6
--
query.sequence: ACUGCCCUAAGUGCUCCUUCUGG [hsa-miR-18a-3p]
5+ nucleoli phenotype percent effect / %: 4.11
--
query.sequence: CGGCGGGGACGGCGAUUGGUC [hsa-miR-1908-5p]
5+ nucleoli phenotype percent effect / %: -47.2
--
query.sequence: ACAUCCUGCUCCACAGGGCAGAGG [hsa-miR-4793-5p]
5+ nucleoli phenotype percent effect / %: -0.984
--
query.sequence: UCUAGUAAGAGUGGCAGUCGA [hsa-miR-628-3p]
5+ nucleoli phenotype percent effect / %: 31.5
--
query.sequence: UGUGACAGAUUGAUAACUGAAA [hsa-miR-542-3p]
5+ nucleoli phenotype percent effect / %: -17.1
--
query.sequence: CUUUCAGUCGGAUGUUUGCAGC [hsa-miR-30a-3p]
5+ nucleoli phenotype percent effect / %: -31
--
query.sequence: GGCUCCUUGGUCUAGGGGUA [hsa-miR-4448]
5+ nucleoli phenotype percent effect / %: 20.5
--
query.sequence: GGCUGAGUGGGGUUCUGACUCC [hsa-miR-8077]
5+ nucleoli phenotype percent effect / %: -6.36
--
query.sequence: AUUCUUCCUGCCCUGGCUCCAU [hsa-miR-6875-3p]
5+ nucleoli phenotype percent effect / %: -0.842

---

System: MCF10A
run.description: percent viability (nuclei count relative to siNT); higher = more viable cells
measurement.parameters: 20 nM; 72 h
Each entry below carries its reported percent viability.

query.sequence: AGCCAGGCUCUGAAGGGAAAGU [hsa-miR-4755-3p]
percent viability (%): 59.3
//
query.sequence: UGACCUUUGCCUCUCCCCUCAG [hsa-miR-6759-3p]
percent viability (%): 20.7
//
query.sequence: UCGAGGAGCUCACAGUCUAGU [hsa-miR-151a-5p]
percent viability (%): 86.8
//
query.sequence: CAAGUCACUAGUGGUUCCGUU [hsa-miR-224-5p]
percent viability (%): 38.7
//
query.sequence: AGGUGUGUCUGUAGAGUCC [hsa-miR-3650]
percent viability (%): 19.8
//
query.sequence: AUCGCUUUACCAUUCAUGUU [hsa-miR-4790-5p]
percent viability (%): 34.2
//
query.sequence: UUUCUAUGUUAGUUGGAAG [hsa-miR-7159-3p]
percent viability (%): 26.4
//
query.sequence: AAGCCCUUACCCCAAAAAGUAU [hsa-miR-129-1-3p]
percent viability (%): 54.9
//
query.sequence: CUUCCUCGUCUGUCUGCCCC [hsa-miR-1238-3p]
percent viability (%): 74.5
//
query.sequence: CUCGAGUUGGAAGAGGCG [hsa-miR-4444]
percent viability (%): 109
//
query.sequence: CUCCCCGGCCUCUGCCCCCAG [hsa-miR-6763-3p]
percent viability (%): 96.4
//
query.sequence: UCCCUGAGCAAAGCCAC [hsa-miR-4319]
percent viability (%): 59.9
//
query.sequence: AGCCCGCCCCAGCCGAGGUUCU [hsa-miR-4707-3p]
percent viability (%): 42.9
//
query.sequence: UAAAUUUCACCUUUCUGAGAAGA [hsa-miR-513c-3p]
percent viability (%): 28.5
//
query.sequence: UCGUGCAUAUAUCUACCACAU [hsa-miR-4536-3p]
percent viability (%): 49.3
//
query.sequence: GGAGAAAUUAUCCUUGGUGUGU [hsa-miR-539-5p]
percent viability (%): 55.7
//
query.sequence: ACUGGACUUGGAGCCAGAAG [hsa-miR-378f]
percent viability (%): 45.3
//
query.sequence: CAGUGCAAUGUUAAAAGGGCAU [hsa-miR-130a-3p]
percent viability (%): 120
//
query.sequence: UAAAACCCACAAUUAUGUUUGU [hsa-miR-548as-3p]
percent viability (%): 149
//
query.sequence: CAGGGAGGUGAAUGUGAU [hsa-miR-1321]
percent viability (%): 20.2
//
query.sequence: AACCCAGUGGGCUAUGGAAAUG [hsa-miR-4482-5p]
percent viability (%): 24.6
//
query.sequence: CACCAGGCAUUGUGGUCUCC [hsa-miR-1911-3p]
percent viability (%): 45
//
query.sequence: UCAUAGCCCUGUACAAUGCUGCU [hsa-miR-103b]
percent viability (%): 46.2
//
query.sequence: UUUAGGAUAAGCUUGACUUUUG [hsa-miR-651]
percent viability (%): 140
//
query.sequence: GGCGGGUGCGGGGGUGG [hsa-miR-3656]
percent viability (%): 148
